Consider the following compounds; for each one, report its Percent Effect.
tested on: Wolbachia pipientis; assay: Anti-Wolbachia Cell-Based Screen; type: functional; parameters: scale not given: in the data most compounds retested in dose-response had high values; conditions: 5 µM
About 13,000 (27%) of roughly 48,000 compounds showed an effect of 50% or more. The list shows a part of the results.
Write the value in % as a bare number.

Param item = CC(NC(=O)COc1nc(C(C)(C)C)no1)c1ccco1 (configuration not stated) ; retrieve measured Percent Effect.
8.75

Given the entry `Cc1ncnc2c1CCN(C(=O)c1cccn1C)CC2` , report its measured Percent Effect.
-19.88

Return reported Percent Effect; argument: `CCOCc1nnc(NCc2cccc(C)c2)o1`
-20.23

Field request: Percent Effect | item: `CN1CCN(CCCNCc2cc(O)c3cc(F)ccc3n2)CC1`
-16.72

So what does the record say about Percent Effect for `CCCNC(=O)COc1cccc(-c2nc(C(C)C)no2)c1` ?
120.4

Return reported Percent Effect; argument: `CCCn1nc(-c2nc(COc3ccccc3)no2)ccc1=O`
-3.247

Looking for the measured Percent Effect of `CN1CCN(c2ncnc3c2CCN(C(=O)c2cccn2C)CC3)CC1` , can you help?
1.463

If you can, please state the reported Percent Effect value of `Cn1cccc1C(=O)N1CCc2ccc(=O)n(C)c2CC1` .
85.33

Tell me the measured Percent Effect of `CC(C)NC(=O)COc1cccc(-c2nc(C(C)C)no2)c1` , please.
105.1

Entry `CC(C)NC(=O)COc1nc(C(C)(C)C)no1` has what Percent Effect?
-1.58

I am curious: what Percent Effect value has been reported for `CC(C)NC(=O)COc1ccc(-c2nc(C(C)C)no2)cc1` ?
114.1

What value of Percent Effect has been recorded for this entry: `CC(C)c1noc(CCCC(=O)NCCOc2ccccc2)n1`
-1.504

---

tested on: Wolbachia pipientis; experiment: Anti-Wolbachia Cell-Based Screen; type: functional; design: scale not given: in the data most compounds retested in dose-response had high values; details: 5 µM
In all, about 48,000 compounds went through this assay and about 13,000 (27%) showed an effect of 50% or more. The list shows a part of the results.
Readout Name: Percent Effect (%)
Output spec: scalar in %, unitless text.

So what does the record say about Percent Effect for `COCc1cn(CC2CCN(Cc3cc(C)[nH]n3)CC2)nn1` ?
114.7

Which Percent Effect is reported for this compound? `CC(=O)Nc1ccc2nc(CN(C)Cc3noc(C)n3)ccc2c1`
88.54

# query: Percent Effect of entry `COCCN(C)c1ccc(NCc2cccnc2)nc1`
-2.901

// query Percent Effect value for entry `COCc1cn(CC2CCN(Cc3nc(C)c[nH]3)CC2)nn1`
122.2

Value lookup for Percent Effect; key = `CC(=O)Nc1ccc2nc(-c3nccn3C[C@@H]3CCCO3)ccc2c1`
-0.02427

Any idea what its Percent Effect is? The compound is CC(Oc1cc(Cl)cc(Cl)c1)C(=O)NCCOCC(N)=O (stereo unspecified)
92.53

Would you mind telling me what Percent Effect value was observed for `O=S(=O)(Nc1cnn(C2CCOCC2)c1)c1ccc2c(c1)CCO2` ?
-1.173

Field request: Percent Effect | item: `Cn1nnn(-c2ccc(NS(=O)(=O)c3ccc(Br)cc3)cc2)c1=O`
-3.296

So what does the record say about Percent Effect for CCNC(=O)NC1CCC(Oc2ccccc2C#N)CC1 (stereo unspecified) ?
4.038

Percent Effect lookup needed for `O=C1O[C@@H]2CN(Cc3ccncc3)C[C@@H]2N1CCCN1CCOCC1` , thanks.
-10.63

Look up Percent Effect for this compound: `Cc1cc(C)n2ncc(CN3CCC(Cn4cc(CO)nn4)CC3)c2n1`
8.529

What value of Percent Effect has been recorded for this entry: `CNC(=O)Cc1ccccc1NC(=O)C1CCCC1`
5.338

// lookup Percent Effect for `N#Cc1ccc(S(=O)(=O)Nc2ccc(N3CCOCC3)cn2)cc1`
1.293

Percent Effect lookup needed for CNC(=O)Cc1ccccc1NC(=O)C1CCN(C2CCCCC2)C1 (stereo unspecified) , thanks.
-1.289

Returns the measured Percent Effect for the input compound. Input: CN(C)CCN1C(=O)CCCC12CCCN(C(=O)c1cc[nH]n1)C2.O=C(O)C(F)(F)F (stereo unspecified)
101.5

For CC(Oc1cc(Cl)cc(Cl)c1)C(=O)NCCS(N)(=O)=O (stereo unspecified) , what is its reported Percent Effect?
112.6

I'd like to know its Percent Effect. The compound in question is CN(C)CCN1C(=O)CCCC12CCCN(C(=O)c1ccncc1)C2.O=C(O)C(F)(F)F.O=C(O)C(F)(F)F (stereo unspecified)
106.1

// Percent Effect lookup, key: CC(C)Oc1ccccc1CNC(=O)N(C)C(C)CS(C)(=O)=O (stereo unspecified)
-10.62

Consider the compound O=C(O)C(F)(F)F.O=C(c1ccoc1)N1CCCC2(CCC(=O)N2Cc2ccncc2)C1 (stereo unspecified) and give its measured Percent Effect.
-1.829

Please report the recorded Percent Effect for `CC(=O)Nc1ccc2nc(CN(C)Cc3snnc3C)ccc2c1` .
89.45

Quick one: Percent Effect for `CCOC(=O)c1nnc2ccccc2c1N1CCN(C(C)C)CC1` ?
-0.1532

Quick one: Percent Effect for `CC(C)(C)OC(=O)NCCNC(=O)c1cnc(-c2ccccc2)nc1` ?
-9.911

# input compound: COc1ccc(-c2cccc3c2OC(CN)C3)cc1F (stereo unspecified) ; wanted: its Percent Effect
-8.297

# input compound: CCCN1CCC(N2CCC(Cn3cc(CC(C)O)nn3)CC2)CC1 (stereo unspecified) ; wanted: its Percent Effect
-21.76

Fill in the blank: the reported Percent Effect of `N#Cc1ccc(S(=O)(=O)Nc2cnn(C3CCOCC3)c2)cc1` is ____.
136.3

What value of measured Percent Effect is listed for `CCCN1CCC(N(C)CCC(=O)Nc2ccccc2SC)CC1` ?
-1.207

What does the record list as Percent Effect for `Cc1cnn(-c2cccc(N3CCN(c4cc(C)nc(C)n4)CC3)n2)c1` ?
4.719

// lookup Percent Effect for CC(Oc1ccccc1C#N)C(=O)NC1CC1 (stereo unspecified)
12.68

Endpoint output: Percent Effect of `CNCc1cn(CC2CCN(CC(C)(C)CN3CCCC3)CC2)nn1` . Value?
-11.44

Look up Percent Effect: `CCc1ccc(S(=O)(=O)Nc2cnc(N3CCOCC3)nc2)cc1`
1.019

Param item = CC(=O)N1CCCC(C(=O)Nc2ccccc2Cc2ccccc2)C1 (stereo unspecified) ; retrieve measured Percent Effect.
4.475

Look up Percent Effect for this compound: `NC(=O)CSc1ccccc1NC(=O)C1CCCC1`
99.94

Given the compound CCS(=O)(=O)CC(C)N(C)C(=O)COc1ccccc1C#N (stereo unspecified) , what is its reported Percent Effect?
95.28

Fill in: Percent Effect of `CN1CCCCC12CCN(c1nncs1)CC2.O=C(O)C(F)(F)F` is ___
-22.78

Field request: Percent Effect | item: CC(CNC(=O)OC(C)(C)C)N(C)C(=O)COc1ccccc1C#N (stereo unspecified)
101.4

Query: Percent Effect; subject: O=C(NCC1CCSCC1)N(CCCO)C1CCc2ccccc21 (stereo unspecified)
6.335

Endpoint output: Percent Effect of `O=C(c1ccc2sccc2c1)N1CCC(C(=O)O)(n2cccn2)CC1` . Value?
-6.348

Any idea what Percent Effect was measured for `O=c1[nH][nH]cc1-c1ccnc(NCCN2CCCCC2)n1` ?
112.5

What value of Percent Effect has been recorded for this entry: `NC(=O)CSc1ccccc1NC(=O)C1CCCCC1`
84.77

Look at this compound and give its reported Percent Effect. `C[C@H]1CCCCN1CCCNc1nccc(-c2c[nH][nH]c2=O)n1`
112

// Percent Effect lookup, key: `NC(=O)CSc1ccccc1NCc1nc(C2CC2)no1`
-3.279

Any idea what Percent Effect was measured for `CC(=O)Nc1ccc2nc(-c3nccn3CCCN(C)C)ccc2c1` ?
3.374

Can you share its Percent Effect? I mean this compound: CN(C)CCN1CCOCC2(CCCN(C(=O)c3ccccn3)C2)C1.O=C(O)C(F)(F)F.O=C(O)C(F)(F)F (stereo unspecified)
-9.412

Sample `O=C(Cc1cccs1)N1C[C@@H]2CC[C@H](C1)N(Cc1ccccn1)C2=O` — what was its Percent Effect?
15.92

Recorded Percent Effect of `COCc1cn(CC2CCN(Cc3c(C)[nH]c4ccccc34)CC2)nn1` , please.
121.8

Query (compound): `CC(=O)c1ccc(S(=O)(=O)Nc2cnn(C3CCOCC3)c2)cc1` ; field requested: Percent Effect
124.1
